Target: human MGL from HeLa cells (Homo sapiens (Human), UniProt Q99685)
Sequence (Q99685 whole entry): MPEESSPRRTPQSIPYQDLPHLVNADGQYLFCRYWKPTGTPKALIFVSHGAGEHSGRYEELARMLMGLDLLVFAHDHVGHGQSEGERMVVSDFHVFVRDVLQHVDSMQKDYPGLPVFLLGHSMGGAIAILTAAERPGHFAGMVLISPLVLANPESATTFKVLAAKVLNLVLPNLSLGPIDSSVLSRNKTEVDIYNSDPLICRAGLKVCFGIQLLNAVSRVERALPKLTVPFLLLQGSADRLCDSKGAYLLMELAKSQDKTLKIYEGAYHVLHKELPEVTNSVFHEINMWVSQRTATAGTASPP
Experiment: MGL in vitro activity assay ([glycerol-1,3-3H]-oleoyl glycerol hydrolysis, activated carbon filtration)
Conditions: 300 nM [Glycerol-1,3-3H]-oleoyl glycerol, one hour
Exam item: assign Met to entries whose IC50 is below 20 nM and Not met to entries at or above 20 nM. Note that a value of exactly 20 nM receives Not met.

compound	discrete-label
Cc1cc([C@H]2CCC3(C2)CN(C(=O)[C@H]2C[C@@](C)(O)C2)C3)ccc1Cl [Example 70]	Met
C[C@]1(O)C[C@@H](C(=O)N2CC3(CC(c4cccc(N5CCCC5)c4)C3)C2)C1 [Example 32]	Not met
Cc1ccc(C2CCC3(C2)CN(C(=O)[C@H]2C[C@@](C)(O)C2)C3)cc1OC(F)(F)F (mixture of isomers) [Example 107]	Met

Here's an entry: COC1(c2cccc(C(C)C)c2)CCC2(CC1)CN(C(=O)[C@H]1C[C@@](C)(O)C1)C2 [Example 266] . Is its IC50 below 20 nM? Met

Also check CC(C)(C)c1cccc(OC2CCC3(CC2)CN(C(=O)[C@H]2C[C@@](C)(O)C2)C3)n1 [Example 425] Met

Also check Cc1cc2ccc(CC3CC4(C3)CN(C(=O)[C@H]3C[C@@](C)(O)C3)C4)nc2n1C [Example 292] Met

Also check Cc1ccc(CC2CC3(C2)CN(C(=O)[C@H]2C[C@@](C)(O)C2)C3)cc1C(F)(F)F [Example 189] Met

Also check COC1(c2ccccc2C)CCC2(CC1)CN(C(=O)[C@H]1C[C@@](C)(O)C1)C2 [Example 343] Met

Also check CC(C)(C)c1cccc(CC2CC3(C2)CN(C(=O)[C@H]2C[C@@](C)(O)C2)C3)n1 [Example 233] Not met
